molecular target: Rac GTPase-activating protein 1 (Homo sapiens) (UniProt Q9H0H5); experiment: blockers of MgcRacGAP-driven Rac1 GTP hydrolysis – biochemical, ADP Hunter fluorescence, primary and confirmatory, confirmation (AID 624330); conditions: MgcRacGAP-stimulated Rac1 GTP hydrolysis, at 30 µM, hits give high values, GST-tagged Rac1 F28L mutant substrate;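 also: fluorescence reports GDP produced by GAP-driven GTP hydrolysis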
Sequence (Q9H0H5 whole entry, looked up): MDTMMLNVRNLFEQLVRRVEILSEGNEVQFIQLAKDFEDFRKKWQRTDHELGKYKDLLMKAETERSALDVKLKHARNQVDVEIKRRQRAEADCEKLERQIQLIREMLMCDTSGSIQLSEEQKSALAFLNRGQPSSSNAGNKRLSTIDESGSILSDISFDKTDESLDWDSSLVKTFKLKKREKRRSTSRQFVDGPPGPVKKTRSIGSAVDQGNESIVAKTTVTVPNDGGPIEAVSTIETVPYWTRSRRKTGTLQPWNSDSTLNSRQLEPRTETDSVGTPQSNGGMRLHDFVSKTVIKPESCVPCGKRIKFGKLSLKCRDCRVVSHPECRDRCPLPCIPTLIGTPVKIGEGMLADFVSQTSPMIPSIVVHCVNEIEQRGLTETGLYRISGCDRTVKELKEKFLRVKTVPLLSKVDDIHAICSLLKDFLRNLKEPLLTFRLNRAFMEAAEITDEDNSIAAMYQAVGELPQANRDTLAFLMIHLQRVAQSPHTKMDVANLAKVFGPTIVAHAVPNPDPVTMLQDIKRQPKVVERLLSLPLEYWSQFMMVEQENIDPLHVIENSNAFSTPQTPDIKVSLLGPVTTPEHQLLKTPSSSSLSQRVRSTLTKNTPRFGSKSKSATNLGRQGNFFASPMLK
About 2,100 (0.62%) of roughly 340,000 compounds were called active. Not all results are given here. Entries with a potency or affinity are not part of this list.
Endpoint Name: inhibition (%)
Only the number, expressed in %, is required.

CC(=O)Nc1ccc(C(=O)Nc2ccc(S(=O)(=O)N3CCOCC3)cc2)cc1 :: -2.26
CCN(CC)S(=O)(=O)c1ccc(Cl)c(NC(=O)COC(=O)c2cc(-c3ccccc3Cl)nc3ccccc23)c1 :: 5.1
COc1cc(OC)c(OC)cc1/C=N/NC(=O)c1ccc(CSc2nc(C)cc(C)n2)cc1 :: 8.78
CN(C)c1ccc(P(=O)(OCc2ccccc2)C(O)c2ccccc2F)cc1 (stereo not drawn) :: 0.52
CCOC(=O)C1=C(COC(=O)/C=C/c2ccc(OCC)c(OC)c2)NC(=O)NC1C (stereo not drawn) :: 9.47
Cc1nc(CNS(=O)(=O)c2cc(C)c(C)cc2C)cs1 :: 10.2

Problem: Any idea what its inhibition is? The compound is CCCCn1c(CN2C(=O)c3ccccc3C2=O)nc2ccccc2c1=O
Solution: 4.82

Problem: Any idea what its inhibition is? The compound is NC(=O)c1ccc(NC(=O)COC(=O)c2ccc3c(c2)OCO3)cc1
Solution: 2.24

Problem: Any idea what its inhibition is? The compound is Cc1cc(/C=C2\NC(=S)N(C)C2=O)ccc1N1CCCC1
Solution: 22.4

Problem: Any idea what its inhibition is? The compound is CN1OC[C@@H]2CN(Cc3cc(Cl)cc(Cl)c3)[C@H](c3cccc(-c4ccc(C#N)cc4)c3)C[C@@H]21
Solution: 13.8

Problem: Any idea what its inhibition is? The compound is COc1cc(/C=C2/NC(=O)N(Cc3ccccc3F)C2=O)cc(OC)c1O
Solution: 26.3

Problem: Any idea what its inhibition is? The compound is Cc1ccc(Cn2c(=O)sc3ccccc3c2=O)cc1
Solution: 5.22

Problem: Any idea what its inhibition is? The compound is COc1ccc(OC)c(/C=N/NC(=O)c2[nH]nc3c2CCc2ccccc2-3)c1
Solution: -0.52

====

target: Rac GTPase-activating protein 1 (Homo sapiens); experiment: blockers of MgcRacGAP-driven Rac1 GTP hydrolysis – biochemical, ADP Hunter fluorescence, primary and confirmatory, confirmation (AID 624330); details: MgcRacGAP-stimulated Rac1 GTP hydrolysis, at 30 µM, hits give high values, GST-tagged Rac1 F28L mutant substrate;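 also: fluorescence reports GDP produced by GAP-driven GTP hydrolysis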
Out of some 340,000 compounds screened, about 2,100 (0.62%) were called active. A selection follows. Results with a measured potency or affinity are listed apart.
// inhibition lookup, one value per entry
Only the number, expressed in %, is required.

Below are worked cases with known answers.
Cc1c(C(C)C[C@H](C)O)oc(=O)c2c1Oc1c(C)c(C(C)C[C@H](C)O)oc(=O)c1C2 (some centres undefined) :: 7.75
CCCC1NC(=O)c2cccnc2-n2c1nc1ccc(Cl)cc1c2=O (centres undefined) :: 13.8
C[C@@H]1CN([C@H](C)CO)C(=O)CCCn2nncc2CO[C@H]1CN(C)S(=O)(=O)c1ccc2ccccc2c1 :: 12.9

Proceeding to the next molecule to report its inhibition.
Problem: // fetch Rac GTPase-activating protein 1 (Homo sapiens) inhibition for CCOc1cc2nc(-c3ccc(OC)c(OC)c3)nc(NCCCN3CCOCC3)c2cc1OC
Solution: 18.4
